- Tested on: THP-1
- protocolDetails: Cytotoxicity against human THP1 cells assessed as reduction in cell viability after 24 hrs by MTT assay
- Assay type: functional, cell-based

>  <smilesRepr>
COc1cc(/C=C2\CN(C)C/C(=C\c3ccccc3F)C2=O)cc(OC)c1OC

>  <Activity>
Dose-dependent effect

$$$$
>  <smilesRepr>
COc1cc(/C=C2\CN(C)C/C(=C\c3ccc(C#N)cc3)C2=O)cc(OC)c1OC

>  <Activity>
Dose-dependent effect

$$$$
>  <smilesRepr>
CN1C/C(=C\c2ccc(C(F)(F)F)cc2)C(=O)/C(=C/c2cccc([N+](=O)[O-])c2)C1

>  <Activity>
Dose-dependent effect

$$$$
>  <smilesRepr>
COc1cc(/C=C2\CN(C)C/C(=C\c3cc(OC)c(OC)c(OC)c3)C2=O)cc(OC)c1

>  <Activity>
Dose-dependent effect

$$$$

----------
- System: THP-1
- protocolDetails: Cytotoxicity against human THP1 cells assessed as reduction in cell viability after 24 hrs by MTT assay
- Assay type: functional, cell-based
- runParameters: THP-1, 24 h
Each entry falls in a class defined on IC50; the bands are band 1: < 1 µM; band 2: ≥ 1 µM and < 5 µM; band 3: ≥ 5 µM

Answered examples (8):
>  <smilesRepr>
COc1cc(/C=C2\CN(C)C/C(=C\c3cccc([N+](=O)[O-])c3)C2=O)cc(OC)c1OC

>  <discreteLabel>
band 1

$$$$
>  <smilesRepr>
CN1C/C(=C\c2ccc(C#N)cc2)C(=O)/C(=C/c2ccccc2F)C1

>  <discreteLabel>
band 1

$$$$
>  <smilesRepr>
COc1cc(/C=C2\CN(C)C/C(=C\c3ccc(Cl)cc3)C2=O)cc(OC)c1

>  <discreteLabel>
band 3

$$$$
>  <smilesRepr>
COc1cc(/C=C2\CN(C)C/C(=C\c3ccc(F)cc3)C2=O)cc(OC)c1OC

>  <discreteLabel>
band 3

$$$$
>  <smilesRepr>
CN1C/C(=C\c2ccc(Cl)cc2)C(=O)/C(=C/c2ccc(C#N)cc2)C1

>  <discreteLabel>
band 2

$$$$
>  <smilesRepr>
CN1C/C(=C\c2ccc(C(F)(F)F)cc2)C(=O)/C(=C/c2ccccc2F)C1

>  <discreteLabel>
band 3

$$$$
>  <smilesRepr>
COc1cc(/C=C2\CN(C)C/C(=C\c3ccc(Cl)cc3)C2=O)cc(OC)c1OC

>  <discreteLabel>
band 3

$$$$
>  <smilesRepr>
COc1cc(/C=C/C(=O)CC(=O)/C=C/c2ccc(O)c(OC)c2)ccc1O

>  <discreteLabel>
band 3

$$$$

query: Into which category would you place COc1cc(/C=C2\CN(C)C/C(=C\c3ccc(Br)cc3)C2=O)cc(OC)c1 ?
result: band 2

query: Into which category would you place CN1C/C(=C\c2cccc(Br)c2)C(=O)/C(=C/c2cccc([N+](=O)[O-])c2)C1 ?
result: band 2

query: Into which category would you place COc1cc(/C=C2\CN(C)C/C(=C\c3ccc(C#N)cc3)C2=O)cc(OC)c1 ?
result: band 1

query: Into which category would you place COc1cc(/C=C2\CN(C)C/C(=C\c3cc(OC)c(OC)c(OC)c3)C2=O)cc(OC)c1 ?
result: band 1

query: Into which category would you place COc1cc(/C=C2\CN(C)C/C(=C\c3ccccc3F)C2=O)cc(OC)c1 ?
result: band 2

query: Into which category would you place COc1cc(/C=C2\CN(C)C/C(=C\c3ccc(Cl)c(Cl)c3)C2=O)cc(OC)c1 ?
result: band 2

query: Into which category would you place COc1cc(/C=C2\CN(C)C/C(=C\c3ccccc3F)C2=O)cc(OC)c1OC ?
result: band 1

query: Into which category would you place CN1C/C(=C\c2ccc(C(F)(F)F)cc2)C(=O)/C(=C/c2cccc([N+](=O)[O-])c2)C1 ?
result: band 1

query: Into which category would you place COc1cc(/C=C2\CN(C)C/C(=C\c3ccc(Cl)cc3Cl)C2=O)cc(OC)c1 ?
result: band 3

----------
Form field: pIC50 (one value per entry).
- Test system: L02
- protocolDetails: Cytotoxicity against human LO2 cells assessed as reduction in cell viability after 24 hrs by MTT assay
- Type: cell-based
- runParameters: L02, 24 h
Give only the number. pIC50 is defined as minus log10 of concentration in molar units.

A selection of reference data follows.
>  <smilesRepr>
COc1cc(/C=C2\CN(C)C/C(=C\c3ccc(Cl)cc3)C2=O)cc(OC)c1OC

>  <targetOrSystem>
L02

>  <pIC50>
4.85

$$$$
>  <smilesRepr>
CN1C/C(=C\c2ccc(C(F)(F)F)cc2)C(=O)/C(=C/c2cccc([N+](=O)[O-])c2)C1

>  <targetOrSystem>
L02

>  <pIC50>
4.91

$$$$
>  <smilesRepr>
CN1C/C(=C\c2ccc(Cl)cc2)C(=O)/C(=C/c2ccc(C#N)cc2)C1

>  <targetOrSystem>
L02

>  <pIC50>
4.79

$$$$
>  <smilesRepr>
COc1cc(/C=C2\CN(C)C/C(=C\c3cccc([N+](=O)[O-])c3)C2=O)cc(OC)c1OC

>  <targetOrSystem>
L02

>  <pIC50>
4.87

$$$$

Continue with the next compound.
query: What does the record list as pIC50 for COc1cc(/C=C2\CN(C)C/C(=C\c3ccc(Br)cc3)C2=O)cc(OC)c1 ?
result: 4.67

----------
Form field: pIC50 (one value per entry).
- System: L02
- protocolDetails: Cytotoxicity against human LO2 cells assessed as reduction in cell viability after 24 hrs by MTT assay
- Format: cell-based
- runParameters: L02, 24 h
Give only the number. pIC50 is defined as minus log10 of concentration in molar units.

>  <smilesRepr>
COc1cc(/C=C2\CN(C)C/C(=C\c3ccc(C#N)cc3)C2=O)cc(OC)c1OC

>  <pIC50>
4.73

$$$$
>  <smilesRepr>
CN1C/C(=C\c2ccc(F)cc2)C(=O)/C(=C/c2cccc([N+](=O)[O-])c2)C1

>  <pIC50>
4.75

$$$$
>  <smilesRepr>
COc1cc(/C=C/C(=O)CC(=O)/C=C/c2ccc(O)c(OC)c2)ccc1O

>  <pIC50>
4.59

$$$$
>  <smilesRepr>
COc1cc(/C=C2\CN(C)C/C(=C\c3ccc(Cl)cc3Cl)C2=O)cc(OC)c1

>  <pIC50>
4.73

$$$$

Continue with the next molecule.
query: What does the record list as pIC50 for CN1C/C(=C\c2ccc(Br)cc2)C(=O)/C(=C/c2cccc([N+](=O)[O-])c2)C1 ?
result: 5.01

----------
- Tested on: HeLa
- protocolDetails: Cytotoxicity against human HeLa cells assessed as reduction in cell viability after 24 hrs by MTT assay
- Format: functional, cell-based
pIC50: −log10 of the molar value.
criterion met means recorded pIC50 is 5 or above; criterion not met means it is below 5.

>  <smilesRepr>
COc1cc(/C=C2\CN(C)C/C(=C\c3cc(OC)c(OC)c(OC)c3)C2=O)cc(OC)c1

>  <targetOrSystem>
HeLa

>  <discreteLabel>
criterion met

$$$$
>  <smilesRepr>
COc1cccc2c1C(=O)c1c(O)c3c(c(O)c1C2=O)C[C@@](O)(C(=O)CO)C[C@@H]3O[C@H]1C[C@H](N)[C@H](O)[C@H](C)O1

>  <targetOrSystem>
HeLa

>  <discreteLabel>
criterion met

$$$$
>  <smilesRepr>
COc1cc(/C=C2\CN(C)C/C(=C\c3ccc(C#N)cc3)C2=O)cc(OC)c1OC

>  <targetOrSystem>
HeLa

>  <discreteLabel>
criterion met

$$$$

Turning now to a further record.
query: Is pIC50 for COc1ccc(/C=C2\CN(C)C/C(=C\c3ccccc3F)C2=O)cc1 at or above 5?
result: criterion not met

----------
- Tested on: HepG2
- protocolDetails: Cytotoxicity against human HepG2 cells assessed as reduction in cell viability after 24 hrs by MTT assay
- Format: functional, cell-based
- runParameters: HepG2, 24 h
measurementLabel: pIC50
Give only the number. pIC50 is defined as minus log10 of concentration in molar units.

>  <smilesRepr>
COc1cc(/C=C2\CN(C)C/C(=C\c3ccc(Cl)cc3Cl)C2=O)cc(OC)c1OC

>  <measurementLabel>
pIC50

>  <assayResult>
5.06

$$$$
>  <smilesRepr>
CN1C/C(=C\c2ccc(C(F)(F)F)cc2)C(=O)/C(=C/c2cccc([N+](=O)[O-])c2)C1

>  <measurementLabel>
pIC50

>  <assayResult>
5.98

$$$$
>  <smilesRepr>
CN1C/C(=C\c2ccc(F)cc2)C(=O)/C(=C/c2ccc(C#N)cc2)C1

>  <measurementLabel>
pIC50

>  <assayResult>
5.21

$$$$
>  <smilesRepr>
COc1cc(/C=C2\CN(C)C/C(=C\c3ccc(F)cc3)C2=O)cc(OC)c1

>  <measurementLabel>
pIC50

>  <assayResult>
5.21

$$$$

query: What does the record list as pIC50 for CN1C/C(=C\c2ccc(C(C)(C)C)cc2)C(=O)/C(=C/c2ccccc2F)C1 ?
result: 5.04

query: What does the record list as pIC50 for COc1ccc(/C=C2\CN(C)C/C(=C\c3ccccc3F)C2=O)cc1 ?
result: 4.91

query: What does the record list as pIC50 for COc1cc(/C=C2\CN(C)C/C(=C\c3ccc(Cl)cc3)C2=O)cc(OC)c1 ?
result: 5.23

query: What does the record list as pIC50 for CN1C/C(=C\c2cccc([N+](=O)[O-])c2)C(=O)/C(=C/c2ccc(Cl)c(Cl)c2)C1 ?
result: 5.22

query: What does the record list as pIC50 for COc1cc(/C=C2\CN(C)C/C(=C\c3ccc(Br)cc3)C2=O)cc(OC)c1OC ?
result: 5.17

Origin of the recorded values: ChEMBL document CHEMBL4145528
